For each of the binders below, state its S/N at plasma conc. 1.60 ng/mL.
Target: T1, exemplary TAT frataxin fusion molecule (HIV-1, UniProt Q16595 1-210)
T1 construct: in the bridging assays biotinylated and sulfotagged forms were used; also called TAT-FXN fusion molecule; TAT FXN fusion molecule
T1 sequence: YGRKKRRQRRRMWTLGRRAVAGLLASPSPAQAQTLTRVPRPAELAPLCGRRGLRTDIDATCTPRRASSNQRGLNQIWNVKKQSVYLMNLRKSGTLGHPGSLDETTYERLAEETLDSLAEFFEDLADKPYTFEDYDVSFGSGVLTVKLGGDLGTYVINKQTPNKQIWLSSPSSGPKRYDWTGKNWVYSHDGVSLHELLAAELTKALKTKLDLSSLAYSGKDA
Assay: PK sandwich ELISA in human plasma, antibody as capture, HRP anti-frataxin mAb detection
Keep the answer to the number alone.

For reference, reported S/N at plasma conc. 1.60 ng/mL for antibody 12-1 (antibody, V domains shown, Rabbit monoclonal) VH: QSLEESGGDLVKPGASLTLTCTASGFSFSSGYWICWVRQAPGKGLEWIACIYTGDGDTSYASWAKGRFTISKTSSTTVTLQMTSLTVADTAIYFCARDTSGTFYYNLWGPGTLVAVSS VL: DVVMTQTPSPVSAPVGGTVTINCQASQNIYSNLAWYQQKPGQPPKLLIYGASTLASGVSSRFKGSRSGTEFTLTISDLECADAATYYCQSYVYSSSTADTFGGGTKVVVE stands at 2.9

For reference, reported S/N at plasma conc. 1.60 ng/mL for antibody 10-1 (antibody, V domains shown, Rabbit monoclonal) VH: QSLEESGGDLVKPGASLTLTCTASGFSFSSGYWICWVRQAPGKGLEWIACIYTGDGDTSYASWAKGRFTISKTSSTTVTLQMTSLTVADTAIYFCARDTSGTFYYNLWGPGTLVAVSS VL: ELVLTQTASSVSAAVGGTVTISCQSSESVYKTNYLSWFQKKPGQPPKLLIYDASTLASGVPSRFSGSGSGTQFTLTISDLECDDAATYYCAGGYSDDINAFGGGTEVVVK stands at 3

For reference, reported S/N at plasma conc. 1.60 ng/mL for antibody 10-4 (antibody, V domains shown, Rabbit monoclonal) VH: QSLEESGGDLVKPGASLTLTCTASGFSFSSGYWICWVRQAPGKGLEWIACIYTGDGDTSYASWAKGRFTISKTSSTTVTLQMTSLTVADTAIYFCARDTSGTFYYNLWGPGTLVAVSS VL: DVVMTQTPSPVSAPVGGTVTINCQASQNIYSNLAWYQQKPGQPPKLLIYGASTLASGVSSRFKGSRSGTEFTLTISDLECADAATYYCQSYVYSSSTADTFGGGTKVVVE stands at 2.5
